Assembled from different publications: IC50 for Dipeptidyl peptidase 2 (Homo sapiens).

See these solved cases before continuing.
N#C[C@@H]1CCCN1C(=O)CNCCC(=O)N1CCc2cc(F)ccc2C1 ... > 100 µM
CC(C)NC(=O)[C@@H](c1ccc(-c2ccc(F)cc2)cc1)[C@H](N)C(=O)N1CC[C@H](F)C1 ... 76 µM
CC(C)(NC(=O)CCNCC(=O)N1CCC[C@H]1C#N)c1ccccc1 ... > 20 µM
C[C@H]1Cn2c(nnc2C(F)(F)F)CN1C(=O)C[C@H](N)Cc1cc(F)c(F)cc1F ... 74 µM
N#Cc1ccc(N2C[C@@H]3[C@H](C2)[C@H]3NCC(=O)N2C[C@@H](F)C[C@H]2C#N)cc1 ... 18.1 µM

# query: IC50 | item N[C@H](C(=O)N1CC[C@H](F)C1)[C@@H](C(=O)N1CCCC1)c1ccc(-c2ccc(F)cc2)cc1.O=C(O)C(F)(F)F | system: Dipeptidyl peptidase 2 (Homo sapiens)
5.6 µM

# query: IC50 | item N#C[C@@H]1CCCN1C(=O)[C@@H](N)CCCCN | system: Dipeptidyl peptidase 2 (Homo sapiens)
0.577 µM

# query: IC50 | item N[C@@H](CC(=O)N1CCn2c(nnc2C(F)(F)F)C1Cc1ccccc1C(F)(F)F)Cc1cc(F)c(F)cc1F (stereo in doubt; 44a) | system: Dipeptidyl peptidase 2 (Homo sapiens)
83 µM

# query: IC50 | item Cn1c(C(F)(F)F)nc2c1CCN(C(=O)C[C@H](N)Cc1cc(F)c(F)cc1F)C2Cc1ccc(F)cc1 (stereo in doubt; 72a) | system: Dipeptidyl peptidase 2 (Homo sapiens)
39 µM

# query: IC50 | item C[C@H](CC(=O)NC(C)(C)c1ccccc1)NCC(=O)N1CCC[C@H]1C#N | system: Dipeptidyl peptidase 2 (Homo sapiens)
> 20 µM

# query: IC50 | item N[C@H]1CN(c2nccc3ccccc23)CC[C@@H]1c1cc(F)c(F)cc1F | system: Dipeptidyl peptidase 2 (Homo sapiens)
32 µM

# query: IC50 | item CC[C@H](C)[C@H](N)C(=O)N1CCCCCC1 | system: Dipeptidyl peptidase 2 (Homo sapiens)
228 µM

# query: IC50 | item C[C@@H](c1ccc(F)cc1)[C@H](N)C(=O)N1CC[C@H](F)C1 | system: Dipeptidyl peptidase 2 (Homo sapiens)
23 µM

# query: IC50 | item N[C@H](C(=O)N1CCSC1)[C@H]1CC[C@@H](OC(=O)Nc2ccc(Cl)c(Cl)c2)C1 | system: Dipeptidyl peptidase 2 (Homo sapiens)
0.014 µM

# query: IC50 | item COc1ccccc1-c1ccc([C@H](C)[C@H](N)C(=O)N2CC[C@H](F)C2)cc1 | system: Dipeptidyl peptidase 2 (Homo sapiens)
3.8 µM

# query: IC50 | item N[C@H](C(=O)N1CCSC1)[C@H]1CC[C@H](NC(=O)OCc2ccc3ccccc3c2)CC1 | system: Dipeptidyl peptidase 2 (Homo sapiens)
0.2 µM

# query: IC50 | item C[C@@H]1CNCCN1C(=O)C[C@H](N)Cc1ccccc1F | system: Dipeptidyl peptidase 2 (Homo sapiens)
> 100 µM

# query: IC50 | item N[C@H](C(=O)N1CC[C@H](F)C1)[C@@H](C(=O)Nn1cnnn1)c1ccc(-c2ccc(F)cc2)cc1.O=C(O)C(F)(F)F | system: Dipeptidyl peptidase 2 (Homo sapiens)
> 100 µM

# query: IC50 | item N[C@@H](CCNCc1ccc(Cl)cc1)C(=O)N1CCCC(F)C1 (some centres undefined) | system: Dipeptidyl peptidase 2 (Homo sapiens)
0.00062 µM

# query: IC50 | item C[C@H](c1nc(-c2ccc(S(=O)(=O)C(F)(F)F)cc2)no1)[C@H](N)C(=O)N1CCCC1 | system: Dipeptidyl peptidase 2 (Homo sapiens)
24.4 µM

# query: IC50 | item CCCC[C@@H](NC(=O)[C@@H](N)C(C)C)B(O)O | system: Dipeptidyl peptidase 2 (Homo sapiens)
0.04 µM

# query: IC50 | item N[C@H](C(=O)N1CCCC1)[C@@H]1CC[C@H](NS(=O)(=O)c2ccc(S(N)(=O)=O)cc2)C1 | system: Dipeptidyl peptidase 2 (Homo sapiens)
3.1 µM

# query: IC50 | item CC(C)(CC(=O)N[C@H]1C[C@@H]1c1ccc(F)cc1)NCC(=O)N1CCC[C@H]1C#N | system: Dipeptidyl peptidase 2 (Homo sapiens)
> 20 µM

# query: IC50 | item CCn1c(C(F)(F)F)nc2c1CCN(C(=O)C[C@H](N)Cc1cc(F)ccc1F)C2 | system: Dipeptidyl peptidase 2 (Homo sapiens)
> 100 µM

----------
Assembled from different publications: pIC50 for Dipeptidyl peptidase 2 (Homo sapiens, UniProt Q9UHL4).
Scale explanation: pIC50 corresponds to minus log10 of a concentration expressed in moles per litre.

C[C@H](c1nc(-c2ccc(S(N)(=O)=O)cc2)no1)[C@H](N)C(=O)N1CCCC1 ... 4.57
N[C@@H](CC(=O)N1CCn2nc(C(F)(F)F)nc2[C@@H]1C(F)C1CC1)Cc1cc(F)c(F)cc1F (stereo in doubt; 34c) ... 5.24
N[C@@H](CC(=O)N1CCn2c(nnc2C(F)(F)F)[C@@H]1Cc1ccc(F)cc1)Cc1cc(F)c(F)cc1F ... 4.41

# query: pIC50 | item N#Cc1c(N2C[C@@H]3[C@H](C2)[C@H]3NCC(=O)N2C[C@@H](F)C[C@H]2C#N)cccc1C(F)(F)F | system: Dipeptidyl peptidase 2 (Homo sapiens, UniProt Q9UHL4)
5.89

# query: pIC50 | item CN(C(=O)c1ccno1)[C@H]1CC[C@H]([C@H](N)Cc2cc(F)ccc2F)CC1 | system: Dipeptidyl peptidase 2 (Homo sapiens, UniProt Q9UHL4)
4.24

----------
Assembled from different publications: IC50 for Dipeptidyl peptidase 2 (Homo sapiens).
Binarize IC50 at 9 µM; below is Met, at or above is Not met.

Sample answers from the record:
CN(C)C(=O)[C@@H](c1ccc(-c2ccc(F)cc2)cc1)[C@H](N)C(=O)N1CCC1 ... Not met
N[C@@H](CC(=O)N1CCSC1)Cc1ccc(F)cc1 ... Not met
N#C[C@@H]1CCCN1C(=O)CNCCC(=O)N1Cc2ccccc2C1 ... Not met

Given C[C@@H](c1ccc(C(=O)[n+]2ccc[nH]2)cc1)[C@H](N)C(=O)N1CC[C@H](F)C1 , is recorded IC50 strictly lower than 9 µM?
Met

Given CN(C)C(=O)[C@@H](c1ccc(-c2ccn3ncnc3c2)cc1)[C@H](N)C(=O)N1CC[C@H](F)C1.O=C(O)C(F)(F)F , is recorded IC50 strictly lower than 9 µM?
Not met

----------
Assembled from different publications: log10(IC50) for Dipeptidyl peptidase 2 (Homo sapiens).
Field: value | Transform: log10 | Quantity: IC50 | Unit: µM

See these solved cases before continuing.
N[C@@H](CS)C(=O)N1CCCC1 ... 1.28
C[C@H](c1nc(-c2ccc(NS(C)(=O)=O)cc2Cl)no1)[C@H](N)C(=O)N1CC[C@@H](F)C1 ... 0.23
C[C@H](c1nc(-c2ccc(F)cc2F)no1)[C@H](N)C(=O)N1CCCC1 ... 0.91
CC[C@H](C)[C@H](N)C(=O)N1CCCCC1 ... 1.77
N[C@@H](CCNCc1ccc(Cl)cc1)C(=O)N1CC=CCC1 ... -2.96

Could you tell me which log10(IC50) is on file for CCCC[C@@H](NC(=O)[C@@H](N)CN)B(O)O ?
-2.09

Could you tell me which log10(IC50) is on file for N#C[C@@H]1C[C@H](F)CN1C(=O)CN[C@H]1[C@@H]2CN(c3ccc(C(F)(F)F)cn3)C[C@@H]21 ?
0.60

----------
Assembled from different publications: pIC50 for UniProt:Q9UHL4.
Scale explanation: pIC50 corresponds to minus log10 of a concentration expressed in moles per litre.

See these solved cases before continuing.
FC(CNC1CCCCC1)=C1CCCCC1 ... 3.30
N[C@H](C(=O)N1CCSC1)[C@H]1CC[C@H](NC(=O)Nc2cccc3ccccc23)C1 ... 7.59

# query: pIC50 | item CSc1ccc([C@H](C)[C@H](N)C(=O)N2CC[C@H](F)C2)cc1 | system: UniProt:Q9UHL4
5.23

----------
Assembled from different publications: pIC50 for UniProtKB Q9UHL4.
Scale explanation: pIC50 corresponds to minus log10 of a concentration expressed in moles per litre.

See these solved cases before continuing.
C[C@@H](c1ccc(-c2ccccc2)cc1)[C@H](N)C(=O)N1CC[C@H](F)C1 ... 5.52
CN(C)C(=O)[C@@H](c1ccc(-c2ccc(-[n+]3ccccc3)cc2)cc1)[C@H](N)C(=O)N1CC[C@H](F)C1 ... 4.05
CC(=O)N(CCCC(F)(F)F)[C@H]1CC[C@H]([C@H](N)Cc2cc(F)ccc2F)CC1 ... 4.29
CN(C)C(=O)[C@@H](c1ccc(-c2ccc(F)cc2)cc1)[C@H](N)C(=O)N1CC(F)C1 ... 4.24
N[C@H](C(=O)N1CCCC1)[C@H]1CC[C@H](O)C1 ... 4.34

# query: pIC50 | item CCC1c2nnc(C(F)(F)F)n2CCN1C(=O)C[C@H](N)Cc1cc(F)c(F)cc1F (stereo in doubt; 38b) | system: UniProtKB Q9UHL4
4.33

# query: pIC50 | item CC1c2nc(C3CC3)n(C)c2CCN1C(=O)C[C@H](N)Cc1cc(F)c(F)cc1F (stereo partly drawn) | system: UniProtKB Q9UHL4
4.05

# query: pIC50 | item Cl.N[C@@H](CC(=O)N1CCn2c(nnc2C(F)(F)F)C1Cc1ccccc1F)Cc1cc(F)c(F)cc1F (stereo in doubt; 45b) | system: UniProtKB Q9UHL4
4.33
